B1: tRNA (parent)
chain: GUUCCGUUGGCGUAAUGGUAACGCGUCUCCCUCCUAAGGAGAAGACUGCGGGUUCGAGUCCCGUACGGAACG

- Variants of: B1
- test-summary: yeast fitness, log relative to wild type (ln ratio); higher = fitter; tRNA-Arg(CCU), competitive growth, 37 C, 1 M NaCl
Kindly return criterion met if reported yeast fitness (ln) is no lower than -0.1; return criterion not met if it is lower.

1) G6U C27U A43C A70U C71U
criterion not met
2) G1A U2C G6U C27U A43C A69G A70U C71U
criterion not met
3) G1A U2C G6U C27U C46U A70U C71U
criterion not met
4) U2G G6A C46U C66A C71U
criterion not met
5) U2G C27U C46U
criterion met
6) G6U C27U A43C C66A A69G A70U C71U
criterion not met
7) G1A G6A C46U C66U
criterion met
8) U2G G6U C27U A43C A70U
criterion not met
9) G6U C27U A70U
criterion not met
10) G1A G6A C46U C66A A70U
criterion not met
11) G1A G6U C46U A70U
criterion not met
12) G1A U2G A70G C71U
criterion not met
13) G1A G6U A43C A70G C71U
criterion not met
14) C66A A69G A70U
criterion met
15) U2G G6U C27U A43C C66U A70G
criterion not met
16) G6A C27U C46U C66U A70U C71U
criterion not met
17) G1A U2G C27U A43C C46U C66A A69G A70G
criterion not met
18) U2C G6U
criterion met
19) G1A C46U
criterion met
20) G1A U2C G6A C27U C46U A70U
criterion met
21) G1A U2C G6A C66U A69G C71U
criterion not met
22) G6U C66A A70U C71U
criterion not met
23) G1A G6A C27U A43C C66U C71U
criterion not met
24) G1A U2C C66A A70U
criterion met
25) G1A C27U A43C A70G C71U
criterion not met
26) G1A G6U A43C
criterion not met
27) G6U C66U A70U C71U
criterion not met
28) G1A U2G G6U C46U C66U A69G A70G
criterion not met
29) U2G G6A A43C C46U C66A A70U
criterion met
30) G1A U2G G6U C27U C66A A69G A70G C71U
criterion not met
31) G1A U2G G6A C27U C46U C66A C71U
criterion not met
32) G1A G6U C46U C66U A69G A70U C71U
criterion not met
33) G1A G6A
criterion met
34) C27U C66U A69G C71U
criterion not met
35) G1A G6U C66A
criterion met
36) G1A G6A C27U C66A A70U
criterion not met
37) U2C G6U A43C C46U C66A C71U
criterion met
38) G1A G6U C46U C66A A69G A70G C71U
criterion not met
39) G6A C27U C66U A69G A70U C71U
criterion not met
40) G1A G6A C27U C66U C71U
criterion met
41) G6A
criterion met
42) C46U
criterion met
43) U2G G6U A43C C46U
criterion not met
44) U2G C27U C66A A69G A70G C71U
criterion not met
45) G1A U2C G6A C27U A43C C46U A70U C71U
criterion not met
46) U2G G6U A69G A70G
criterion not met
47) U2C G6U C66U C71U
criterion not met
48) U2G G6U C46U C71U
criterion not met
49) A43C A69G A70G
criterion met
50) G6U C66U C71U
criterion not met
51) U2G G6A C27U C66A A70G
criterion not met
52) U2C A70G C71U
criterion met
53) U2C C66U A69G A70U
criterion met
54) G6U C46U C66A A70U C71U
criterion not met
55) U2C G6A C46U A69G C71U
criterion not met
56) U2C G6A C27U C46U C66A A69G A70G C71U
criterion not met
57) G1A U2C G6U A43C C46U C66A A69G A70G C71U
criterion met
58) G1A C27U C46U C66A A69G A70U
criterion not met
59) G1A U2C C27U A69G A70G C71U
criterion met
60) G6A A43C C46U C71U
criterion not met
61) U2G C27U A43C C66U A69G C71U
criterion not met
62) U2G G6A C27U C46U A69G C71U
criterion not met
63) G1A U2G G6U A43C C46U A70U C71U
criterion not met
64) G1A U2G G6A A43C C46U C66U A69G A70G C71U
criterion not met
65) G1A G6U C46U A69G A70G C71U
criterion not met
66) U2C G6A C27U C46U A69G A70G
criterion not met
67) G6U C27U A43C C46U A69G C71U
criterion not met
68) G1A G6U C66U A69G A70U C71U
criterion not met
69) G1A U2C G6A C46U C66U A70U
criterion not met
70) U2C G6U A43C A69G A70U C71U
criterion not met
71) U2G C66U A70U C71U
criterion not met
72) G1A U2G A43C C46U C66U A69G A70G
criterion not met
73) U2G G6U C46U C66U A70G
criterion not met
74) G1A G6U C46U A70G
criterion not met
75) U2G G6U A43C C46U A69G A70U
criterion not met
76) G6A C27U A43C C46U C66U A70U C71U
criterion not met
77) G1A U2C G6U C27U A43C C46U C66U A69G A70G
criterion not met
78) G1A U2G C27U C66A A69G A70U C71U
criterion not met
79) G1A U2C C27U
criterion met
80) U2C G6A C27U A43C C46U A70U C71U
criterion not met
81) G1A G6A C27U A43C C46U
criterion not met
82) U2G C46U C66U A69G C71U
criterion not met
83) U2C G6U A43C C46U C66U A70G
criterion met
84) U2G G6A C27U A43C C66A A69G A70U C71U
criterion not met
85) U2G C27U C46U C66U A70U C71U
criterion not met
86) U2G G6A C66U C71U
criterion not met
87) G1A U2C C27U C46U C66U C71U
criterion not met
88) G1A U2G G6A C27U A43C A70U C71U
criterion not met
89) C27U C46U C66A A69G C71U
criterion not met
90) G1A G6A C27U
criterion not met
